Source: patent US11795460B2

System: TTR mRNA
Experiment: TTR mRNA knockdown in primary human hepatocytes by quantitative PCR (Tables 34, 35)
Format: cell-based
Settings: TTR mRNA in PHH; LNP dose 300 ng mRNA cargo; gRNA:mRNA 1:2; 96 hours after treatment; biological triplicates; vs untreated control
Strand notation (5' to 3'): a small letter for the sugar, then the base; units joined by * are phosphorothioate-linked, units joined directly phosphodiester-linked; [ ] holds rarer units or linkages, { } end groups; capitals alone tell only the bases. m = 2'-O-methyl; r = 2'-OH (RNA)
Record form. Attribute: Avg % Knockdown. Fill in for each entry.
Numbers only, in %.

Answered cases to consult:
G000494: TTR sgRNA modified sequence, Human, SEQ ID No. 101; guide sequence of CR003360 (nucleic acid) guide: mG*mU*mG*rArGrUrCrUrGrGrArGrArGrCrUrGrCrArUrGrUrUrUrUrArGrAmGmCmUmAmGmAmAmAmUmAmGmCrArArGrUrUrArArArArUrArArGrGrCrUrArGrUrCrCrGrUrUrArUrCrAmAmCmUmUmGmAmAmAmAmAmGmUmGmGmCmAmCmCmGmAmGmUmCmGmGmUmGmCmU*mU*mU*mU ... 91.15
G000488: TTR sgRNA modified sequence, Human, SEQ ID No. 95; guide sequence of CR003346 (nucleic acid) guide: mA*mA*mA*rGrUrUrCrUrArGrArUrGrCrUrGrUrCrCrGrGrUrUrUrUrArGrAmGmCmUmAmGmAmAmAmUmAmGmCrArArGrUrUrArArArArUrArArGrGrCrUrArGrUrCrCrGrUrUrArUrCrAmAmCmUmUmGmAmAmAmAmAmGmUmGmGmCmAmCmCmGmAmGmUmCmGmGmUmGmCmU*mU*mU*mU ... 92.77
G000571: TTR sgRNA modified sequence, Human, SEQ ID No. 112; guide sequence of CR005301 (nucleic acid) guide: mG*mU*mC*rArCrArGrArArArCrArCrUrCrArCrCrGrUrGrUrUrUrUrArGrAmGmCmUmAmGmAmAmAmUmAmGmCrArArGrUrUrArArArArUrArArGrGrCrUrArGrUrCrCrGrUrUrArUrCrAmAmCmUmUmGmAmAmAmAmAmGmUmGmGmCmAmCmCmGmAmGmUmCmGmGmUmGmCmU*mU*mU*mU ... 96.17
G000500: TTR sgRNA modified sequence, Human, SEQ ID No. 107; guide sequence of CR003337 (nucleic acid) guide: mC*mC*mA*rGrUrCrCrArGrCrArArGrGrCrArGrArGrGrGrUrUrUrUrArGrAmGmCmUmAmGmAmAmAmUmAmGmCrArArGrUrUrArArArArUrArArGrGrCrUrArGrUrCrCrGrUrUrArUrCrAmAmCmUmUmGmAmAmAmAmAmGmUmGmGmCmAmCmCmGmAmGmUmCmGmGmUmGmCmU*mU*mU*mU ... 92.90

Required: Avg % Knockdown, one value per molecule below.
1. G000568: TTR sgRNA modified sequence, Human, SEQ ID No. 110; guide sequence of CR003391 (nucleic acid) guide: mG*mG*mC*rUrGrUrCrGrUrCrArCrCrArArUrCrCrCrArGrUrUrUrUrArGrAmGmCmUmAmGmAmAmAmUmAmGmCrArArGrUrUrArArArArUrArArGrGrCrUrArGrUrCrCrGrUrUrArUrCrAmAmCmUmUmGmAmAmAmAmAmGmUmGmGmCmAmCmCmGmAmGmUmCmGmGmUmGmCmU*mU*mU*mU
2. G000489: TTR sgRNA modified sequence, Human, SEQ ID No. 96; guide sequence of CR003344 (nucleic acid) guide: mU*mU*mU*rGrArCrCrArUrCrArGrArGrGrArCrArCrUrGrUrUrUrUrArGrAmGmCmUmAmGmAmAmAmUmAmGmCrArArGrUrUrArArArArUrArArGrGrCrUrArGrUrCrCrGrUrUrArUrCrAmAmCmUmUmGmAmAmAmAmAmGmUmGmGmCmAmCmCmGmAmGmUmCmGmGmUmGmCmU*mU*mU*mU
3. G000490: TTR sgRNA modified sequence, Human, SEQ ID No. 97; guide sequence of CR003366 (nucleic acid) guide: mA*mA*mA*rUrArGrArCrArCrCrArArArUrCrUrUrArCrGrUrUrUrUrArGrAmGmCmUmAmGmAmAmAmUmAmGmCrArArGrUrUrArArArArUrArArGrGrCrUrArGrUrCrCrGrUrUrArUrCrAmAmCmUmUmGmAmAmAmAmAmGmUmGmGmCmAmCmCmGmAmGmUmCmGmGmUmGmCmU*mU*mU*mU
4. G000570: TTR sgRNA modified sequence, Human, SEQ ID No. 111; guide sequence of CR003347 (nucleic acid) guide: mC*mA*mU*rUrGrArUrGrGrCrArGrGrArCrUrGrCrCrUrGrUrUrUrUrArGrAmGmCmUmAmGmAmAmAmUmAmGmCrArArGrUrUrArArArArUrArArGrGrCrUrArGrUrCrCrGrUrUrArUrCrAmAmCmUmUmGmAmAmAmAmAmGmUmGmGmCmAmCmCmGmAmGmUmCmGmGmUmGmCmU*mU*mU*mU
5. G000482: TTR sgRNA modified sequence, Human, SEQ ID No. 89; guide sequence of CR003365 (nucleic acid) guide: mU*mG*mU*rArGrArArGrGrGrArUrArUrArCrArArArGrGrUrUrUrUrArGrAmGmCmUmAmGmAmAmAmUmAmGmCrArArGrUrUrArArArArUrArArGrGrCrUrArGrUrCrCrGrUrUrArUrCrAmAmCmUmUmGmAmAmAmAmAmGmUmGmGmCmAmCmCmGmAmGmUmCmGmGmUmGmCmU*mU*mU*mU

result:
1. 53.44
2. 91.85
3. 78.34
4. 93.38
5. 82.31

Required: Avg % Knockdown, one value per molecule below.
1. G000484: TTR sgRNA modified sequence, Human, SEQ ID No. 91; guide sequence of CR003367 (nucleic acid) guide: mA*mG*mA*rCrArCrCrArArArUrCrUrUrArCrUrGrGrArGrUrUrUrUrArGrAmGmCmUmAmGmAmAmAmUmAmGmCrArArGrUrUrArArArArUrArArGrGrCrUrArGrUrCrCrGrUrUrArUrCrAmAmCmUmUmGmAmAmAmAmAmGmUmGmGmCmAmCmCmGmAmGmUmCmGmGmUmGmCmU*mU*mU*mU
2. G000499: TTR sgRNA modified sequence, Human, SEQ ID No. 106; guide sequence of CR005303 (nucleic acid) guide: mU*mG*mA*rArUrCrCrArArGrUrGrUrCrCrUrCrUrGrArGrUrUrUrUrArGrAmGmCmUmAmGmAmAmAmUmAmGmCrArArGrUrUrArArArArUrArArGrGrCrUrArGrUrCrCrGrUrUrArUrCrAmAmCmUmUmGmAmAmAmAmAmGmUmGmGmCmAmCmCmGmAmGmUmCmGmGmUmGmCmU*mU*mU*mU

result:
[75.22, 91.38]
